- test_method_notes: Protein binding in rat serum at 1 uM after 60 mins by LC/MS-MS
- Format: ADME, cell-free
- setup_conditions: read-out: PPB (converted)
endpoint_label: fraction unbound at 1 h, 1 µM

[[record]]
record_smiles = "CC(C)(C)CC(=O)Nc1c(F)cc(C(=O)Nc2nccs2)cc1F"
value_measured = 0.03


* * *

pKi: −log10 of the molar value.
The following compounds have recorded pKi on Adenosine receptor A2a (Homo sapiens).
Sequence (P29274 whole entry): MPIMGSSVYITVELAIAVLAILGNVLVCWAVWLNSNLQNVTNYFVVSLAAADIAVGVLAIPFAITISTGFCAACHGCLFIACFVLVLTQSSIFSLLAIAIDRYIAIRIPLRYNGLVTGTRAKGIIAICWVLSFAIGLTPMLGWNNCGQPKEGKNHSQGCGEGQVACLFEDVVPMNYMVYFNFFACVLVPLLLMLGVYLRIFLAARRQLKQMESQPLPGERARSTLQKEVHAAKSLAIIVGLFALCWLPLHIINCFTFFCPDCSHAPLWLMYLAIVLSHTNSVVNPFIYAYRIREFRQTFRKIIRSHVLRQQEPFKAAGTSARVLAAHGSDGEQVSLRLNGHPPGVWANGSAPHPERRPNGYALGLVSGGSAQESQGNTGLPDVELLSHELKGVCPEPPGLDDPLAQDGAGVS
endpoint_label: pKi

[[record]]
record_smiles = "Cc1nc(NC(=O)c2ccc(NC(=O)CC(C)(C)C)cc2)sc1C"
tgt = "Adenosine receptor A2a (Homo sapiens)"
value_measured = 6.66

[[record]]
record_smiles = "CC(C)(C)CC(=O)Nc1ccc(C(=O)Nc2nccs2)cc1"
tgt = "Adenosine receptor A2a (Homo sapiens)"
value_measured = 7.44

[[record]]
record_smiles = "CCCC(=O)Nc1ccc(C(=O)Nc2nccs2)cc1"
tgt = "Adenosine receptor A2a (Homo sapiens)"
value_measured = 6.46

[[record]]
record_smiles = "Cc1cc(C(=O)Nc2nccs2)cc(Cl)c1NC(=O)CC(C)(C)C"
tgt = "Adenosine receptor A2a (Homo sapiens)"
value_measured = 7.49

[[record]]
record_smiles = "CC(C)(C)CNC(=O)c1ccc(C(=O)Nc2nccs2)cc1"
tgt = "Adenosine receptor A2a (Homo sapiens)"
value_measured = 6.96

[[record]]
record_smiles = "Cc1cnc(NC(=O)c2ccc(NC(=O)CC(C)(C)C)cc2)s1"
tgt = "Adenosine receptor A2a (Homo sapiens)"
value_measured = 6.92

[[record]]
record_smiles = "CC(C)(C)CC(=O)Nc1ccc(C(=O)Nc2nccs2)cc1Cl"
tgt = "Adenosine receptor A2a (Homo sapiens)"
value_measured = 7.66

[[record]]
record_smiles = "CC(C)C(=O)Nc1ccc(C(=O)Nc2nccs2)cc1"
tgt = "Adenosine receptor A2a (Homo sapiens)"
value_measured = 6.52

[[record]]
record_smiles = "CCCCC(=O)Nc1ccc(C(=O)Nc2nccs2)cc1"
tgt = "Adenosine receptor A2a (Homo sapiens)"
value_measured = 6.72


* * *

- test_method_notes: Protein binding in human serum at 1 uM after 60 mins by LC/MS-MS
- Format: ADME, cell-free
- setup_conditions: read-out: PPB (converted)
endpoint_label: fraction unbound at 1 h, 1 µM

[[record]]
record_smiles = "CC(C)(C)CC(=O)Nc1c(F)cc(C(=O)Nc2nccs2)cc1F"
value_measured = 0.15


* * *

- Tested on: Liver microsomes
- test_method_notes: Intrinsic clearance in rat liver microsomes at 1 uM after 60 mins by LC-MS/MS analysis
- Assay type: ADME, Microsome
- setup_conditions: 1 h
// CL lookup, one value per entry
endpoint_label: CL (mL/min)

[[record]]
compound = "CCCC(=O)Nc1ccc(C(=O)Nc2nccs2)cc1"
endpoint_label = "CL"
value_measured = 18

[[record]]
compound = "CC(C)CC(=O)Nc1ccc(C(=O)Nc2nccs2)cc1"
endpoint_label = "CL"
value_measured = 12

[[record]]
compound = "CCn1c(=O)c2c(nc(/C=C/c3ccc(OC)c(OC)c3)n2C)n(CC)c1=O [ISTRADEFYLLINE]"
endpoint_label = "CL"
value_measured = 11

[[record]]
compound = "Cc1ccccc1C(=O)Nc1ccc(C(=O)Nc2nccs2)cc1"
endpoint_label = "CL"
value_measured = 5

[[record]]
compound = "CCCCC(=O)Nc1ccc(C(=O)Nc2nccs2)cc1"
endpoint_label = "CL"
value_measured = 54

[[record]]
compound = "CC(C)(C)CC(=O)Nc1ccc(C(=O)Nc2nccs2)cc1"
endpoint_label = "CL"
value_measured = 11


* * *

- tgt: Cytochrome P450 3A4 (Homo sapiens, UniProt P08684)
- Sequence (P08684 whole entry): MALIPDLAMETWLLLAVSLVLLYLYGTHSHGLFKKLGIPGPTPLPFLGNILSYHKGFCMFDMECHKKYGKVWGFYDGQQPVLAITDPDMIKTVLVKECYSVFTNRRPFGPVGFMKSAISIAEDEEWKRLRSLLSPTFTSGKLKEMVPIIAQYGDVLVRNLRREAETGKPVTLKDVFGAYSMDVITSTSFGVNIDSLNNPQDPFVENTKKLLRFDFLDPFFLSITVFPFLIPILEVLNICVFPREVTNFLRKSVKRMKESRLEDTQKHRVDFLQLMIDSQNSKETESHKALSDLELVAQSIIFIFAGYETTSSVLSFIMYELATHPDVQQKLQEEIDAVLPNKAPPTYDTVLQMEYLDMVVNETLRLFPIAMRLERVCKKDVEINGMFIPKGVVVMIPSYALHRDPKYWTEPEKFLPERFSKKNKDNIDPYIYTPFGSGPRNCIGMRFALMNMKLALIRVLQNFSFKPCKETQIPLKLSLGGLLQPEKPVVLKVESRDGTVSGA
- test_method_notes: Inhibition of recombinant CYP3A4 after 30 mins
endpoint_label: IC50

[[record]]
record_smiles = "CC(C)(C)CC(=O)Nc1c(F)cc(C(=O)Nc2nccs2)cc1F"
tgt = "Cytochrome P450 3A4 (Homo sapiens, UniProt P08684)"
value_measured = "> 40 µM"

[[record]]
record_smiles = "CC(C)CC(=O)Nc1ccc(C(=O)Nc2nccs2)cc1"
tgt = "Cytochrome P450 3A4 (Homo sapiens, UniProt P08684)"
value_measured = "> 40 µM"

[[record]]
record_smiles = "CCCC(=O)Nc1ccc(C(=O)Nc2nccs2)cc1"
tgt = "Cytochrome P450 3A4 (Homo sapiens, UniProt P08684)"
value_measured = "> 40 µM"

[[record]]
record_smiles = "CC(C)(C)CC(=O)Nc1ccc(C(=O)Nc2nccs2)cc1"
tgt = "Cytochrome P450 3A4 (Homo sapiens, UniProt P08684)"
value_measured = "> 40 µM"

[[record]]
record_smiles = "CCCCC(=O)Nc1ccc(C(=O)Nc2nccs2)cc1"
tgt = "Cytochrome P450 3A4 (Homo sapiens, UniProt P08684)"
value_measured = "> 40 µM"

[[record]]
record_smiles = "Cc1ccccc1C(=O)Nc1ccc(C(=O)Nc2nccs2)cc1"
tgt = "Cytochrome P450 3A4 (Homo sapiens, UniProt P08684)"
value_measured = "1.4 µM"


* * *

// IC50 lookup, one value per entry
- tgt: UniProt P10635
- Sequence (P10635 whole entry): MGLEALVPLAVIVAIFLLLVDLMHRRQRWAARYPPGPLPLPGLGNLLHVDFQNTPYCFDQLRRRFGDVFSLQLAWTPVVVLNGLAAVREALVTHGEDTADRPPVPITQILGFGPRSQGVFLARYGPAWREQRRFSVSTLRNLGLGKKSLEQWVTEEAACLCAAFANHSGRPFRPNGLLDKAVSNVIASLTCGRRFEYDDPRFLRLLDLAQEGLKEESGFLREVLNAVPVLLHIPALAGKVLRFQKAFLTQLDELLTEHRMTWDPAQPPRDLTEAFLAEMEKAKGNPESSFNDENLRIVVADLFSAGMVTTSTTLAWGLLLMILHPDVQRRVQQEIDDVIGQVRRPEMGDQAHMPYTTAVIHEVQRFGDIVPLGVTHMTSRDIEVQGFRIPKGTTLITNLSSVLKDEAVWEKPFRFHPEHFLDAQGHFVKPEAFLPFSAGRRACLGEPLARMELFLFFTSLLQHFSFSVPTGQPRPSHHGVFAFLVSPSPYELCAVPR
- test_method_notes: Inhibition of recombinant CYP2D6 after 45 mins
endpoint_label: IC50

[[record]]
record_smiles = "CCCCC(=O)Nc1ccc(C(=O)Nc2nccs2)cc1"
tgt = "UniProt P10635"
endpoint_label = "IC50"
value_measured = "> 40 µM"

[[record]]
record_smiles = "CC(C)CC(=O)Nc1ccc(C(=O)Nc2nccs2)cc1"
tgt = "UniProt P10635"
endpoint_label = "IC50"
value_measured = "> 40 µM"

[[record]]
record_smiles = "CC(C)(C)CC(=O)Nc1c(F)cc(C(=O)Nc2nccs2)cc1F"
tgt = "UniProt P10635"
endpoint_label = "IC50"
value_measured = "> 40 µM"


* * *

- test_method_notes: Chemical stability of the compound assessed as half life
- Format: physicochemical
// half-life lookup, one value per entry
endpoint_label: half-life

[[record]]
record_smiles = "CC[C@H](C)[C@H](N)C(=O)OCn1ccs/c1=N\\C(=O)c1cc(F)c(NC(=O)CC(C)(C)C)c(F)c1"
value_measured = "24 min"

[[record]]
record_smiles = "CC(C)(C)CC(=O)Nc1c(F)cc(C(=O)/N=c2\\sccn2COP(=O)(O)O)cc1F"
value_measured = "> 96000 min"


* * *

- tgt: Cytochrome P450 2C19 (Homo sapiens)
- Sequence (P33261 whole entry): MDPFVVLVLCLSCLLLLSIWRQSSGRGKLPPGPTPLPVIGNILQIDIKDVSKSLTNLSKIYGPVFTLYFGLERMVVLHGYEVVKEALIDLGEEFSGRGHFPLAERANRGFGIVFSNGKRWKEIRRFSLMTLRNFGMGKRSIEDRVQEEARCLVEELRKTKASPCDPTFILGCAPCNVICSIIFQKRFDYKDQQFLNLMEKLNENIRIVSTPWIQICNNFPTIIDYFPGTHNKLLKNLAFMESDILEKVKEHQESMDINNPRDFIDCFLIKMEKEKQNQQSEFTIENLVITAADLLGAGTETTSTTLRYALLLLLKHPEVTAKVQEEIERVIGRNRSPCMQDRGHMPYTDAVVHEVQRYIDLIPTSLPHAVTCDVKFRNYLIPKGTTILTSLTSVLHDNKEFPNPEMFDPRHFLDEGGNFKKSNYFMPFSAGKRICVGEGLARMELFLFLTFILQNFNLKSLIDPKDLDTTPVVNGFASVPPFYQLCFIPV
- test_method_notes: Inhibition of recombinant CYP2C19 after 45 mins
pIC50: −log10 of the molar value.
endpoint_label: pIC50

[[record]]
compound = "CCn1c(=O)c2c(nc(/C=C/c3ccc(OC)c(OC)c3)n2C)n(CC)c1=O [ISTRADEFYLLINE]"
value_measured = "< 4.40"

[[record]]
compound = "COCCOc1ccc(N2CCN(CCn3ncc4c3nc(N)n3nc(-c5ccco5)nc43)CC2)cc1 [PRELADENANT]"
value_measured = "< 4.40"

[[record]]
compound = "CCCCC(=O)Nc1ccc(C(=O)Nc2nccs2)cc1"
value_measured = "< 4.40"

[[record]]
compound = "CC(C)CC(=O)Nc1ccc(C(=O)Nc2nccs2)cc1"
value_measured = "< 4.40"

[[record]]
compound = "CCCC(=O)Nc1ccc(C(=O)Nc2nccs2)cc1"
value_measured = 4.44

[[record]]
compound = "CC(C)(C)CC(=O)Nc1ccc(C(=O)Nc2nccs2)cc1"
value_measured = "< 4.40"

[[record]]
compound = "Cc1ccccc1C(=O)Nc1ccc(C(=O)Nc2nccs2)cc1"
value_measured = 4.64

[[record]]
compound = "CC(C)(C)CC(=O)Nc1c(F)cc(C(=O)Nc2nccs2)cc1F"
value_measured = "< 4.40"


* * *

- Test system: Liver microsomes
- test_method_notes: Intrinsic clearance in human liver microsomes at 1 uM after 60 mins by LC-MS/MS analysis
- Assay type: ADME, Microsome
- setup_conditions: 1 h
// log10 CL lookup, one value per entry
endpoint_label: log10 CL (log10 of the value in L/min)

[[record]]
record_smiles = "CC(C)(C)CC(=O)Nc1ccc(C(=O)Nc2nccs2)cc1"
value_measured = -0.15

[[record]]
record_smiles = "CC(C)CC(=O)Nc1ccc(C(=O)Nc2nccs2)cc1"
value_measured = 0.20

[[record]]
record_smiles = "CCCC(=O)Nc1ccc(C(=O)Nc2nccs2)cc1"
value_measured = -0.10

[[record]]
record_smiles = "Cc1ccccc1C(=O)Nc1ccc(C(=O)Nc2nccs2)cc1"
value_measured = -0.30

[[record]]
record_smiles = "CCn1c(=O)c2c(nc(/C=C/c3ccc(OC)c(OC)c3)n2C)n(CC)c1=O"
value_measured = -1.00

[[record]]
record_smiles = "CCCCC(=O)Nc1ccc(C(=O)Nc2nccs2)cc1"
value_measured = 0.36


* * *

- test_method_notes: Plasma clearance in Sprague-Dawley rat at 0.5 mg/kg, iv and 1 mg/kg, po
- Format: ADME, organism-based
endpoint_label: clearance (L/h/kg)

[[record]]
record_smiles = "CC(C)(C)CC(=O)Nc1c(F)cc(C(=O)Nc2nccs2)cc1F"
value_measured = 0.3


* * *

- Tested on: Rattus norvegicus
- test_method_notes: AUC in Sprague-Dawley rat assessed as 4-(3,3-Dimethyl-butyrylamino)-3,5-difluoro-N-thiazol-2-yl-benzamide level at 15 mg/kg, po
- Assay type: ADME, organism-based, Plasma
- Parameters: dose 15 mg/kg, route oral
- setup_conditions: in vivo
endpoint_label: AUC (ng·h/mL)

[[record]]
record_smiles = "CC(C)(C)CC(=O)Nc1c(F)cc(C(=O)/N=c2\\sccn2COP(=O)(O)O)cc1F"
unit_string = "ng·h/mL"
value_measured = 35000

